Assign Tumor volume to each entry below.
- Test system: A375 human melanoma xenografts
- experiment_description: Example 6 efficacy study in A375 human melanoma xenografts (tumor volume, T/C, TGI)
- Type: in vivo, BALB/c nude mice
- condition_summary: 10 mg/kg, p.o., BID × 21 days; day 11; Mean ± SEM
Give bare numbers, in mm^3.

Recorded Tumor volume, per entry:
[
  {
    "compound": "Cn1nc(N2CCC(=O)NC2=O)c2cc(F)c(C3CCC(N4CCC5(CC4)CC(n4cnc6ccc(Oc7c(F)ccc(NS(=O)(=O)C8CCCC8)c7C#N)cc6c4=O)C5)CC3)cc21 (single isomer, unassigned)",
    "numeric_readout": 69
  },
  {
    "compound": "CCN(C)S(=O)(=O)Nc1ccc(F)c(Oc2ccc3ncn(C4CC5(CCN(C6CCC(c7cc8c(cc7F)c(N7CCC(=O)NC7=O)nn8C)CC6F)CC5)C4)c(=O)c3c2)c1C#N (single isomer, unassigned)",
    "numeric_readout": 39
  },
  {
    "compound": "CCN(C)S(=O)(=O)Nc1ccc(F)c(Oc2ccc3ncn([C@H]4COC5(CCN(C6CC(c7cc8c(cc7F)c(N7CCC(=O)NC7=O)nn8C)C6)CC5)C4)c(=O)c3c2)c1C#N (single isomer, unassigned)",
    "numeric_readout": 44
  }
]

Checklist item: Tumor volume tested on A375 human melanoma xenografts, entry CCN(C)S(=O)(=O)Nc1ccc(F)c(Oc2ccc3ncc([C@@H]4COC5(CCN(C6CCC(c7cc8c(cc7F)c(N7CCC(=O)NC7=O)nn8C)CC6)CC5)C4)nc3c2)c1C#N (single isomer, unassigned) , value?
65

* * *

- experiment_description: Pharmacokinetics in female BALB/c nude mice bearing A375 xenografts, 1 day dosing (PK and PD study): plasma, tumor and brain concentrations, AUC
- Format: in vivo
- condition_summary: mouse, plasma, po, 10 mg/kg, 10 mg/kg p.o. BID × 1 day; post 2nd dose; 0.25 h; read-out: Mean Concentration in Plasma ± SEM
observable: concentration at 0.25 h (ng/mL)
Answers are plain numbers, in ng/mL.

Fill in: concentration at 0.25 h of CCN(C)S(=O)(=O)Nc1ccc(F)c(Oc2ccc3ncn([C@H]4COC5(CCN(C6CC7(C6)CN(c6cc8c(cc6F)c(N6CCC(=O)NC6=O)nn8C)C7)CC5)C4)c(=O)c3c2)c1C#N is ___
6220

* * *

Assign concentration at 6 h to each entry below.
- experiment_description: Example 8 pharmacokinetics assay for PKPD study (plasma, tumor, liver)
- Format: in vivo, BALB/c nude mice
- condition_summary: mouse, plasma, po, 10 mg/kg, p.o., single dose; 6 h; read-out: Concentration in Plasma (mean ± SEM)
Answers are plain numbers, in ng/mL.

Recorded concentration at 6 h, per entry:
[
  {
    "compound": "CCN(C)S(=O)(=O)Nc1ccc(F)c(Oc2ccc3ncn([C@H]4COC5(CCN(C6CC7(C6)CN(c6cc8c(cc6F)c(N6CCC(=O)NC6=O)nn8C)C7)CC5)C4)c(=O)c3c2)c1C#N",
    "observable": "concentration at 6 h",
    "unit_of_measurement": "ng/mL",
    "numeric_readout": 20800
  },
  {
    "compound": "CCN(C)S(=O)(=O)Nc1ccc(F)c(Oc2ccc3ncn([C@H]4COC5(CCC(N6CCC(c7cc8c(cc7F)c(N7CCC(=O)NC7=O)nn8C)C(F)(F)C6)CC5)C4)c(=O)c3c2)c1C#N (single isomer, unassigned)",
    "observable": "concentration at 6 h",
    "unit_of_measurement": "ng/mL",
    "numeric_readout": 16400
  }
]

Fill in: concentration at 6 h of CCN(C)S(=O)(=O)Nc1ccc(F)c(Oc2ccc3ncn(C4CC5(CCN(C6CCC(c7cc8c(cc7F)c(N7CCC(=O)NC7=O)nn8C)CC6)CC5)C4)c(=O)c3c2)c1C#N (single isomer, unassigned) is ___
339

* * *

Assign concentration at 6 h to each entry below.
- experiment_description: Example 7 pharmacokinetics assay for PKPD study (plasma, tumor, liver)
- Assay type: in vivo, BALB/c nude mice
- condition_summary: mouse, plasma, po; 10 mg/kg, p.o., single dose; 6 h; read-out: Concentration in Plasma (mean ± SEM)

[
  {
    "compound": "CCN(C)S(=O)(=O)Nc1ccc(F)c(Oc2ccc3ncn(C4CC5(CCN(C6CCN(c7cc8c(cc7F)c(N7CCC(=O)NC7=O)nn8C)CC6)CC5)C4)c(=O)c3c2)c1C#N",
    "result": "805 ng/mL"
  },
  {
    "compound": "CCN(C)S(=O)(=O)Nc1ccc(F)c(Oc2ccc3ncc(OCC4CCN(C5CCC(c6cc7c(cc6F)c(N6CCC(=O)NC6=O)nn7C)CC5)CC4)nc3c2)c1C#N (single isomer, unassigned)",
    "result": "1500 ng/mL"
  },
  {
    "compound": "CCN(C)S(=O)(=O)Nc1ccc(F)c(Oc2ccc3ncc(C4CC5(CCN(C6CCC(c7cc8c(cc7F)c(N7CCC(=O)NC7=O)nn8C)CC6)CC5)C4)nc3c2)c1C#N (single isomer, unassigned)",
    "result": "260 ng/mL"
  }
]

Now for another entry.
Fill in: concentration at 6 h of CCN(C)S(=O)(=O)Nc1ccc(F)c(Oc2ccc3ncn(C4CC5(CCN(C6CC7(C6)CN(c6cc8c(cc6F)c(N6CCC(=O)NC6=O)nn8C)C7)CC5)C4)c(=O)c3c2)c1C#N (stereo not shown) is ___
10700 ng/mL

* * *

- experiment_description: Pharmacokinetics after 21 days dosing in the efficacy study (plasma, tumor and brain concentrations; plasma AUC at steady state), Example 14
- Format: in vivo, female BALB/c nude mice
- condition_summary: mouse, tumor, po; 6 mg/kg p.o. QD x 21 days; 4 h; mean ± SEM; read-out: Concentration in Tumor
observable: concentration at 4 h (ng/g)
Numbers only, in ng/g.

Fill in: concentration at 4 h of CCN(C)S(=O)(=O)Nc1ccc(F)c(Oc2ccc3ncn([C@H]4COC5(CCN(C6CC7(C6)CN(c6cc8c(cc6F)c(N6CCC(=O)NC6=O)nn8C)C7)CC5)C4)c(=O)c3c2)c1C#N is ___
2910

* * *

- experiment_description: Pharmacokinetics in female BALB/c nude mice bearing A375 xenografts, 1 day dosing (PK and PD study): plasma, tumor and brain concentrations, AUC
- Format: in vivo
- condition_summary: mouse, plasma, po, 1.5 mg/kg, Compound 141; 1.5 mg/kg p.o. BID × 1 day; post 2nd dose; 10 h; read-out: Mean Concentration in Plasma ± SEM
observable: concentration at 10 h (ng/mL)
Give bare numbers, in ng/mL.

Fill in: concentration at 10 h of CCN(C)S(=O)(=O)Nc1ccc(F)c(Oc2ccc3ncn(C4CC5(CCN(C6CC7(C6)CN(c6cc8c(cc6F)c(N6CCC(=O)NC6=O)nn8C)C7)CC5)C4)c(=O)c3c2)c1C#N (stereo not shown) is ___
115

* * *

- experiment_description: Pharmacokinetics after 21 days dosing in the efficacy study (plasma, tumor and brain concentrations; plasma AUC at steady state), Example 14
- Type: in vivo, female BALB/c nude mice
- condition_summary: mouse, plasma, po; 1 mg/kg p.o. TID x 21 days; 0.25 h; mean ± SEM
observable: concentration at 0.25 h
A complete answer gives the number and then names the unit.

Fill in: concentration at 0.25 h of CCN(C)S(=O)(=O)Nc1ccc(F)c(Oc2ccc3ncn(C4CC5(CCN(C6CC7(C6)CN(c6cc8c(cc6F)c(N6CCC(=O)NC6=O)nn8C)C7)CC5)C4)c(=O)c3c2)c1C#N (stereo not shown) is ___
950 ng/mL

* * *

- experiment_description: Pharmacokinetics in female BALB/c nude mice bearing A375 xenografts, 1 day dosing (PK and PD study): plasma, tumor and brain concentrations, AUC
- Assay type: in vivo
- condition_summary: mouse, brain, po, 6 mg/kg, 6 mg/kg p.o. QD × 1 day; 1 h; read-out: Mean Concentration in Brain ± SEM
observable: concentration at 1 h (ng/g)
Answers are plain numbers, in ng/g.

Fill in: concentration at 1 h of CCN(C)S(=O)(=O)Nc1ccc(F)c(Oc2ccc3ncn([C@H]4COC5(CCN(C6CC7(C6)CN(c6cc8c(cc6F)c(N6CCC(=O)NC6=O)nn8C)C7)CC5)C4)c(=O)c3c2)c1C#N is ___
167

* * *

- target_system: BRAF V600E (Homo sapiens, UniProt P15056+Q96SW2, V600E)
- Construct: knock-in of the HiBiT tag to the endogenous BRAF V600E locus; host or cells: A375.10 (A375 clonal line, CRISPR HiBiT knock-in at the endogenous BRAF V600E locus)
- Sequence (P15056 whole entry V600E): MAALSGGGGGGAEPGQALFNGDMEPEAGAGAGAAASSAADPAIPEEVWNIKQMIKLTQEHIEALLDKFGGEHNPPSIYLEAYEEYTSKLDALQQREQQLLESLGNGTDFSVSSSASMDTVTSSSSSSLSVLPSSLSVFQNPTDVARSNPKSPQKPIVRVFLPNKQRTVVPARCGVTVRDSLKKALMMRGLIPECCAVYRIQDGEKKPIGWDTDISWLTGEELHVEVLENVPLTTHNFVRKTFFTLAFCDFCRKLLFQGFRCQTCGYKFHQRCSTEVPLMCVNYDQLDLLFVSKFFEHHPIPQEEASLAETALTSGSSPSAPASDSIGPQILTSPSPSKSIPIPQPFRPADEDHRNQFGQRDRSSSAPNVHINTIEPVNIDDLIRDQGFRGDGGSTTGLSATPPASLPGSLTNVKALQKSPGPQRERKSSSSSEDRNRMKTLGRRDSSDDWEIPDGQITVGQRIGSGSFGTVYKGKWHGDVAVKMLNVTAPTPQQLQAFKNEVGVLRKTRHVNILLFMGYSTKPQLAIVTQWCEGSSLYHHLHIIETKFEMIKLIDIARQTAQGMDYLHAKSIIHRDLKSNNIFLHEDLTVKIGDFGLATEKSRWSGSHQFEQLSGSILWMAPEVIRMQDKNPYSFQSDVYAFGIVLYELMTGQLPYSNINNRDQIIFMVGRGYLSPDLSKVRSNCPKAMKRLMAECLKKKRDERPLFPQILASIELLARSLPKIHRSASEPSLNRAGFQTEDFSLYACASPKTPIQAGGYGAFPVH
- Sequence (Q96SW2 whole entry): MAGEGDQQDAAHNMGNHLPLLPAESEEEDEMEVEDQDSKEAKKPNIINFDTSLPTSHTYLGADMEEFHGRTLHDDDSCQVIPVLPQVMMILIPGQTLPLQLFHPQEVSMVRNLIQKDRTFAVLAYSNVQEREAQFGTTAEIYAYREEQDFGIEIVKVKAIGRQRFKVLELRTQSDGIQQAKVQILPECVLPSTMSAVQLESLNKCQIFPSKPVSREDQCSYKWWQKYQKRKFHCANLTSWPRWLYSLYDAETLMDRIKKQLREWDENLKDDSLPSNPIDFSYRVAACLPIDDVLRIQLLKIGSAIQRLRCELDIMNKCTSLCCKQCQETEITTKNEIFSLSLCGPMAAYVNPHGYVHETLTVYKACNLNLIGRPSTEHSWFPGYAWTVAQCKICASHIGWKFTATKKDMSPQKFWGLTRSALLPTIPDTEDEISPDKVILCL
- Sequence (Q16531 whole entry partner): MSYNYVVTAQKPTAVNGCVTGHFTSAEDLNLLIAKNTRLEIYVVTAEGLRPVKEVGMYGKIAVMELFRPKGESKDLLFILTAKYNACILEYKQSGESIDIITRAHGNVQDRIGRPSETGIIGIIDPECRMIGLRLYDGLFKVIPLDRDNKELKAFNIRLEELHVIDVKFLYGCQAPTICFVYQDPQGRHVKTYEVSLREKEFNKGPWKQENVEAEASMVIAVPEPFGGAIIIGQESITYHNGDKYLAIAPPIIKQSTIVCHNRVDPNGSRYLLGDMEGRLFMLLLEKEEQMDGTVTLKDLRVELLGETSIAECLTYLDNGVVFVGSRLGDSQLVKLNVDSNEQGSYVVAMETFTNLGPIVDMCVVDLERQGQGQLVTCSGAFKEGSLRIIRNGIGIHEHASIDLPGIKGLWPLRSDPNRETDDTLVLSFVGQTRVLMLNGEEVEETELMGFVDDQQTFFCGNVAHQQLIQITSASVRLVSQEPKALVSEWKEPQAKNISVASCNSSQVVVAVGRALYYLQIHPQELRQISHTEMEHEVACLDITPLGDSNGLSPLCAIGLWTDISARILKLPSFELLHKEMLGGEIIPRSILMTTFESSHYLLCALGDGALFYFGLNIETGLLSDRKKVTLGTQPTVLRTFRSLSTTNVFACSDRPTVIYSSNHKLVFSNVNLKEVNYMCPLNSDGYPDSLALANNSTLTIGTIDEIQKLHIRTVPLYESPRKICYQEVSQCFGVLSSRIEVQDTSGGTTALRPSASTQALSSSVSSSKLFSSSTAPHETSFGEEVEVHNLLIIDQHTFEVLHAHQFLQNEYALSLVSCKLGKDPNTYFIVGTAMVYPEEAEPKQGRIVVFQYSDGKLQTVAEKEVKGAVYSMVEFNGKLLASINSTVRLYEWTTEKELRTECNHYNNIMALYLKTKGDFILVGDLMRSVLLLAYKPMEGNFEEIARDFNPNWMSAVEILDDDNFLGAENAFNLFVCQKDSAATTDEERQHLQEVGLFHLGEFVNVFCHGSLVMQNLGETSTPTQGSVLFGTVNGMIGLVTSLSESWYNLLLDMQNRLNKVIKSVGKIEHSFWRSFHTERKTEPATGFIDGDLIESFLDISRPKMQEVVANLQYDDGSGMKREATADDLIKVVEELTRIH
- experiment_description: BRAF V600E HiBiT Degradation Assay
- Type: cell-based
- condition_summary: read-out: HiBiT-Degradation A375.10 BRAF 6 hours DC50; A375.10 cells, BRAF V600E, 6 hours
observable: DC50

# batch: return DC50 for each of the 2 compounds below
1. CCN(C)S(=O)(=O)Nc1ccc(F)c(Oc2ccc3ncn([C@H]4COC5(CCN(C6CC(c7cc8c(cc7F)c(N7CCC(=O)NC7=O)nn8C)C6)CC5)C4)c(=O)c3c2)c1C#N (single isomer, unassigned) [Compound 70]
2. CO[C@@H]1CCN(S(=O)(=O)Nc2ccc(F)c(Oc3ccc4ncn([C@H]5COC6(CCN(C7CC8(C7)CN(c7cc9c(cc7F)c(N7CCC(=O)NC7=O)nn9C)C8)CC6)C5)c(=O)c4c3)c2C#N)C1 [Compound 144]

1. < 1 µM
2. < 1 µM

# batch: return DC50 for each of the 2 compounds below
1. CN(CCO)S(=O)(=O)Nc1ccc(F)c(Oc2ccc3ncn(C4CC5(CCN(C6CC7(C6)CN(c6cc8c(cc6F)c(N6CCC(=O)NC6=O)nn8C)C7)CC5)C4)c(=O)c3c2)c1C#N (stereo not shown) [Compound 151]
2. CCN(C)S(=O)(=O)Nc1ccc(F)c(Oc2ccc3ncn([C@H]4COC5(CCC(N6CCN(c7ccc(NC8CCC(=O)NC8=O)cc7F)CC6)CC5)C4)c(=O)c3c2)c1C#N (stereo partly shown) [Compound 40]

1: < 1 µM; 2: < 1 µM

These entries and their values trace back to patent US20260297060A1.
